# Measurement protocol: Single-dose pharmacokinetic study, oral and intravenous, in SD rats
# Format: in vivo, SD rat
# Experimental setup: male, SD, rat, plasma, iv, 5 mg/kg, male SD rats, 5 mg/kg (intravenous), Average; read-out: Cl—pred (converted)
Result type: clearance

| Compound | Readout value |
| --- | --- |
| CCc1nc2ccccn2c1C(=O)c1cc(Br)c(O)c(C#N)c1 [Form 1] | 1 mL/min/kg |

----------
# Measurement protocol: Dynamic vapor sorption/desorption (DVS)
# Type: physicochemical
# Experimental setup: 25° C., 85% RH
Threshold 2%. DVS (85% RH) below it: 1.0. DVS (85% RH) at it or above: 0.0.

| Compound | Category |
| --- | --- |
| CCc1nc2ccccn2c1C(=O)c1cc(Br)c(O)c(C#N)c1 [Form 9] | 1.0 |
| CCc1nc2ccccn2c1C(=O)c1cc(Br)c(O)c(C#N)c1 [Form 8] | 0.0 |
| CCc1nc2ccccn2c1C(=O)c1cc(Br)c(O)c(C#N)c1 [Form 11] | 0.0 |
| CCc1nc2ccccn2c1C(=O)c1cc(Br)c(O)c(C#N)c1 [Form 5D] | 0.0 |
| CCc1nc2ccccn2c1C(=O)c1cc(Br)c(O)c(C#N)c1 [Form 1] | 0.0 |
| CCc1nc2ccccn2c1C(=O)c1cc(Br)c(O)c(C#N)c1 [Form 6] | 1.0 |
| CCc1nc2ccccn2c1C(=O)c1cc(Br)c(O)c(C#N)c1 [Form 12] | 0.0 |
| CCc1nc2ccccn2c1C(=O)c1cc(Br)c(O)c(C#N)c1 [Form 7] | 1.0 |
| CCc1nc2ccccn2c1C(=O)c1cc(Br)c(O)c(C#N)c1 [Form 10] | 0.0 |

----------
# Measurement protocol: Single-dose pharmacokinetic study, oral and intravenous, in SD rats
# Type: in vivo, SD rat
# Experimental setup: male, SD, rat, plasma, iv, 1 mg/kg, male SD rats, intravenous 1 mg/kg, Average; read-out: AUCINF—pred

| Compound | AUC(0-inf) / ng·h/mL |
| --- | --- |
| CCc1nc2ccccn2c1C(=O)c1cc(Br)c(O)c(C#N)c1 [Form 1] | 17400 |

----------
# Measurement protocol: Single-dose pharmacokinetic study, oral and intravenous, in SD rats
# Assay type: in vivo, SD rat
# Experimental setup: male, SD, rat, plasma, iv, 5 mg/kg, male SD rats, 5 mg/kg (intravenous), Average
# Description: Form 1, Form 2, and Form 5D were each evaluated via a single-dose pharmacokinetic study following oral and intravenous administration in SD rats. […] Form 1, Form 2, and Form 5Dwere evaluated by rat pharmacokinetics study. […] The computer program Microsoft Office Excel 2007 (Microsoft, USA) was used to process data and graphics. The pharmacokinetic parameters were calculated by WinNolin 6.4 software.
Result type: Cmax (µg/mL)

| Compound | Result type | Readout value |
| --- | --- | --- |
| CCc1nc2ccccn2c1C(=O)c1cc(Br)c(O)c(C#N)c1 [Form 1] | Cmax | 51.4 |

----------
# Measurement protocol: Solubility in water, buffers and bio-relevant media (37° C., 24 h shaking, HPLC)
# Assay type: physicochemical
# Experimental setup: pH 4.5 acetate buffer, 37° C., 24 h
Threshold 1 µg/mL. Solubility below it: condition met. Solubility at it or above: condition not met.

| Compound | Category |
| --- | --- |
| CCc1nc2ccccn2c1C(=O)c1cc(Br)c(O)c(C#N)c1 [Form 6] | condition met |
| CCc1nc2ccccn2c1C(=O)c1cc(Br)c(O)c(C#N)c1 [Form 11] | condition not met |
| CCc1nc2ccccn2c1C(=O)c1cc(Br)c(O)c(C#N)c1 [Form 8] | condition met |
| CCc1nc2ccccn2c1C(=O)c1cc(Br)c(O)c(C#N)c1 [Form 5D] | condition not met |
| CCc1nc2ccccn2c1C(=O)c1cc(Br)c(O)c(C#N)c1 [Form 2] | condition met |
